Tested on: Hela (human cervical cancer cell)
assay protocol: Solid tumor cell growth inhibition, MTT, 72 h (Example 7)
Type: cell-based
condition description: Homo sapiens; 72 h, MTT, Hela
assay metric: IC90 (µg/mL)
# unit: µg/mL | format: bare number

Some compounds with known IC90 results, for comparison:
compound | IC90 (µg/mL)
COc1ccc2cc1Oc1ccc(cc1)C[C@H]1c3cc(c(OC)cc3CCN1C)Oc1c(OC)c(OC)c(CN(C)[C@@H](C)c3ccccc3)c3c1[C@H](C2)N(C)CC3 | 2.02
COc1ccc2cc1Oc1ccc(cc1)C[C@H]1c3cc(c(OC)cc3CCN1C)Oc1c(OC)c(OC)c(CNCc3cccs3)c3c1[C@H](C2)N(C)CC3 | 2.56
COc1ccc2cc1Oc1ccc(cc1)C[C@H]1c3cc(c(OC)cc3CCN1C)Oc1c(OC)c(OC)c(COCc3cccnc3)c3c1[C@H](C2)N(C)CC3 | 3.45
COc1ccc2cc1Oc1ccc(cc1)C[C@H]1c3cc(c(OC)cc3CCN1C)Oc1c(OC)c(OC)c(CN3CCCC(C)C3)c3c1[C@H](C2)N(C)CC3 (some centres unmarked) | 5
COc1ccc2cc1Oc1ccc(cc1)C[C@H]1c3cc(c(OC)cc3CCN1C)Oc1c(OC)c(OC)c(CNC3CC3)c3c1[C@H](C2)N(C)CC3 | 3.83
COc1ccc2cc1Oc1ccc(cc1)C[C@H]1c3cc(c(OC)cc3CCN1C)Oc1c(OC)c(OC)c(CN3CCC(C#N)CC3)c3c1[C@H](C2)N(C)CC3 | 3.89
COc1ccc2cc1Oc1ccc(cc1)C[C@H]1c3cc(c(OC)cc3CCN1C)Oc1c(OC)c(OC)c(CN3CCC(N(C)C)CC3)c3c1[C@H](C2)N(C)CC3 | 2.81

Pending compound:
Input line: Please report the recorded IC90 for COc1ccc2cc1Oc1ccc(cc1)C[C@H]1c3cc(c(OC)cc3CCN1C)Oc1c(OC)c(OC)cc3c1[C@H](C2)N(C)CC3 [TTD, reference compound] .
Output line: 9.24

* * *

The compounds listed here are annotated with their IC90.
Tested on: MGC 803 (human gastric cancer cell)
assay protocol: Solid tumor cell growth inhibition, MTT, 72 h (Example 7)
Assay type: cell-based
condition description: Homo sapiens
# unit: µg/mL | format: bare number

Some compounds with known IC90 results, for comparison:
compound | observed
COc1ccc2cc1Oc1ccc(cc1)C[C@H]1c3cc(c(OC)cc3CCN1C)Oc1c(OC)c(OC)c(CN3CCCC3)c3c1[C@H](C2)N(C)CC3 | 10
COc1ccc2cc1Oc1ccc(cc1)C[C@H]1c3cc(c(OC)cc3CCN1C)Oc1c(OC)c(OC)c(CN3CCOCC3)c3c1[C@H](C2)N(C)CC3 | 14.1
COc1ccc2cc1Oc1ccc(cc1)C[C@H]1c3cc(c(OC)cc3CCN1C)Oc1c(OC)c(OC)cc3c1[C@H](C2)N(C)CC3 [TTD, reference compound] | 7.41
COc1ccc2cc1Oc1ccc(cc1)C[C@H]1c3cc(c(OC)cc3CCN1C)Oc1c(OC)c(OC)c(CN3CCN(c4ccccc4)CC3)c3c1[C@H](C2)N(C)CC3 | 2.88
COc1ccc2cc1Oc1ccc(cc1)C[C@H]1c3cc(c(OC)cc3CCN1C)Oc1c(OC)c(OC)c(CNC(C)C)c3c1[C@H](C2)N(C)CC3 | 11.8
COc1ccc2cc1Oc1ccc(cc1)C[C@H]1c3cc(c(OC)cc3CCN1C)Oc1c(OC)c(OC)c(COC(=O)c3ccc(N(C)C)cc3)c3c1[C@H](C2)N(C)CC3 | 9

Input line: Please report the recorded IC90 for `COCCCNCc1c2c3c(c(OC)c1OC)Oc1cc4c(cc1OC)CCN(C)[C@H]4Cc1ccc(cc1)Oc1cc(ccc1OC)C[C@@H]3N(C)CC2` .
Output line: 5.54

Input line: Please report the recorded IC90 for `COc1ccc2cc1Oc1ccc(cc1)C[C@H]1c3cc(c(OC)cc3CCN1C)Oc1c(OC)c(OC)c(COC(=O)c3cccs3)c3c1[C@H](C2)N(C)CC3` .
Output line: 8

Input line: Please report the recorded IC90 for COc1ccc2cc1Oc1ccc(cc1)C[C@H]1c3cc(c(OC)cc3CCN1C)Oc1c(OC)c(OC)c(CN3CCCC(O)C3)c3c1[C@H](C2)N(C)CC3 (stereo partly shown) .
Output line: 6.73

Input line: Please report the recorded IC90 for `COc1ccc2cc1Oc1ccc(cc1)C[C@H]1c3cc(c(OC)cc3CCN1C)Oc1c(OC)c(OC)c(CNCc3ccco3)c3c1[C@H](C2)N(C)CC3` .
Output line: 4.11

Input line: Please report the recorded IC90 for `COc1ccc2cc1Oc1ccc(cc1)C[C@H]1c3cc(c(OC)cc3CCN1C)Oc1c(OC)c(OC)c(CN3CCC(O)CC3)c3c1[C@H](C2)N(C)CC3` .
Output line: 23

Input line: Please report the recorded IC90 for `COc1ccc2cc1Oc1ccc(cc1)C[C@H]1c3cc(c(OC)cc3CCN1C)Oc1c(OC)c(OC)c(CNCc3ccc(C)o3)c3c1[C@H](C2)N(C)CC3` .
Output line: 7.08

Input line: Please report the recorded IC90 for `COc1ccc2cc1Oc1ccc(cc1)C[C@H]1c3cc(c(OC)cc3CCN1C)Oc1c(OC)c(OC)c(CN3CCC(C#N)CC3)c3c1[C@H](C2)N(C)CC3` .
Output line: 8
